Ref: patent US20230374132A1

binders and their reported kon
Target entity: cynomolgus monkey CD3 E&D complex protein (Sino Biological Inc., CT032-00323H) (cynomolgus monkey) (UniProt Q95LI5)
Sequence (Q95LI5 22-117, chain 1 of 2): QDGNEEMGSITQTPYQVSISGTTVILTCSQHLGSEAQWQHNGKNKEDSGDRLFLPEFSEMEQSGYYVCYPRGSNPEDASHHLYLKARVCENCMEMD
Sequence (Q95LI8 22-105, chain 2 of 2, further chain): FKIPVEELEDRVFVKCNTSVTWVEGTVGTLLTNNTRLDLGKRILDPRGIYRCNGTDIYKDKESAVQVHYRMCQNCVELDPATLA
Measurement notes: SPR, antigen on chip
Numeric only. Scale: M⁻¹ s⁻¹

Observe how each entry below is paired with its result.
{"columns": ["Binder", "Unit tag", "kon"],
 "data": [
  ["SGN70-sp34.99LH (bispecific antibody, part only; not given: anti-CD70 Fab arm and Fc, not shown: another chain or arm of the molecule; a dimerising Fc or GST) scFv: QAVVTQEPSLTVSPGGTVTLTCRSSTGAVTTSNYANWVQQKPGQAPRGLIGGTNKRAPGVPARFSGSLLGDKAALTLLGAQPEDEAEYYCALWYSNLWVFGQGTKLTVLGGGGSGGGGSGGGGSGGGGSEVQLVESGGGLVQPGGSLKLSCAASGFTFNTYAMNWVRQASGKGLEWVGRIRSKYNNYATYYADSVKDRFTISRDDSKSTLYLQMNSLKTEDTAVYYCARHGNAYQSYVSWFAYWGQGTTVTVSS", "M⁻¹ s⁻¹", 14900],
  ["SGN70-sp34.80LH (bispecific antibody, part only; not given: anti-CD70 Fab arm and Fc, not shown: another chain or arm of the molecule; a dimerising Fc or GST) scFv: QAVVTQEPSLTVSPGGTVTLTCRSSTGAVTTSNYANWVQQKPGQAPRGLIGGTNKRAPGVPARFSGSLLGDKAALTLLGAQPEDEAEYYCALWYSNLWVFGQGTKLTVLGGGGSGGGGSGGGGSGGGGSEVQLVESGGGLVQPGGSLKLSCAASGFTFNTAAMNWVRQASGKGLEWVGRIRSKYNNYATYYADSVKDRFTISRDDSKSTLYLQMNSLKTEDTAVYYCARHGNFGQSYVSWFAYWGQGTTVTVSS", "M⁻¹ s⁻¹", 115000],
  ["SGN70-sp34.24LH (bispecific antibody, part only; not given: anti-CD70 Fab arm and Fc, not shown: another chain or arm of the molecule; a dimerising Fc or GST; large carriers; small tags and cut ends) scFv: QAVVTQEPSLTVSPGGTVTLTCRSSTGAVTTSNYANWVQQKPGQAPRGLIGGTNKRAPGVPARFSGSLLGDKAALTLLGAQPEDEAEYYCALWYSNLWVFGQGTKLTVLGGGGSGGGGSGGGGSGGGGSEVQLVESGGGLVQPGGSLKLSCAASGFTFNTYAMNWVRQASGKGLEWVGRIRSKYNNYATYYADSVKDRFTISRDDSKSTLYLQMNSLKTEDTAVYYCARHGNFGQSYVSWFAYWGQGTTVTVSS", "M⁻¹ s⁻¹", 113000]
]}

According to the records, this binder SGN70-sp34.101LH (bispecific antibody, part only; not given: anti-CD70 Fab arm and Fc, not shown: another chain or arm of the molecule; a dimerising Fc or GST; large carriers) scFv: QAVVTQEPSLTVSPGGTVTLTCRSSTGAVTTSNYANWVQQKPGQAPRGLIGGTNKRAPGVPARFSGSLLGDKAALTLLGAQPEDEAEYYCALWYSNLWVFGQGTKLTVLGGGGSGGGGSGGGGSGGGGSEVQLVESGGGLVQPGGSLKLSCAASGFTFNTYAMNWVRQASGKGLEWVGRIRSKYNNYATYYADSVKDRFTISRDDSKSTLYLQMNSLKTEDTAVYYCARHGNFGQSAASWFAYWGQGTTVTVSS displays kon of 235000

Recorded kon (binder SGN70-sp34.87LH (bispecific antibody, part only; not given: anti-CD70 Fab arm and Fc, not shown: another chain or arm of the molecule; a dimerising Fc or GST) scFv: QAVVTQEPSLTVSPGGTVTLTCRSSTGAVTTSNYANWVQQKPGQAPRGLIGGTNKRAPGVPARFSGSLLGDKAALTLLGAQPEDEAEYYCALWYSNLWVFGQGTKLTVLGGGGSGGGGSGGGGSGGGGSEVQLVESGGGLVQPGGSLKLSCAASGFTFNTYAMNWVRQASGKGLEWVGRIRSKYNNYATYYADSVKDRFTISRDDSKSTLYLQMNSLKTEDTAVYYCARHYNFGQSYVSWFAYWGQGTTVTVSS ): 85700
